B1: library; numbered along this chain (parent)
chain: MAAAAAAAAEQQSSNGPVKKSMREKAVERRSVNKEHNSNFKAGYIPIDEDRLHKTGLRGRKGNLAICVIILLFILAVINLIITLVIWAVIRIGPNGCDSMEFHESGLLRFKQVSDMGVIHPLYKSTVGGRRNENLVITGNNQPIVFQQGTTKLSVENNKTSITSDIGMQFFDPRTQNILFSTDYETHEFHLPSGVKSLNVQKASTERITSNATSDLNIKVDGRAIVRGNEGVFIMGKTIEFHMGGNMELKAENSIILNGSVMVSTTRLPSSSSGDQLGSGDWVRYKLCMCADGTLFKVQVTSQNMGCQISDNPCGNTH

Variants of: B1
Protocol notes: SGCB cell-surface expression functional score (HA stain, bin4 vs bin1, normalised to synonymous) (log10 ratio); higher = more cell-surface SGCB (functional)
# SGCB cell-surface expression functional score (log10) per record follows

> print(dat)
   mutant.designation  result
1               P173G   -0.17
2               R109S   -0.09
3                R60G   -0.33

# SGCB cell-surface expression functional score (log10) lookup, item `T317E`
-0.34

Let us now turn to `G236C`
-1.64

Let us now turn to `D311V`
0.04

Let us now turn to `I82P`
0.22

Let us now turn to `S193P`
-0.22

Let us now turn to `D311L`
0.05
